Each recorded value in this set is attributed to patent US20240131162A1.

Biological target: T1, CD16A F158 (human, UniProt P08637 17-208, limits assumed)
T1 construct: construct not described
T1 sequence (P08637 17-208 limits assumed): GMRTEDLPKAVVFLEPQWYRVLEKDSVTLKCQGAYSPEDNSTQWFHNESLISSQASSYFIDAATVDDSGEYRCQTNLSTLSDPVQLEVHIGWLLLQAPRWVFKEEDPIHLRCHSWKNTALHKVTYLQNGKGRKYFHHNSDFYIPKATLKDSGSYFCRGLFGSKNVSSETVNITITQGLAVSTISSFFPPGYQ
Assay: SPR (BIAcore), koff compared with wild-type Fc
endpoint: WT koff/mutant koff (ratio)
Form entry: value (ratio) — number only.

{"columns": ["binder", "WT koff/mutant koff (ratio)"],
 "data": [
  ["Fc mutant 12: F243L R292P Y300L (other, UniProt P01857-1 104-330, looked up, domain: Fc) DKTHTCPPCPAPELLGGPSVFLLPPKPKDTLMISRTPEVTCVVVDVSHEDPEVKFNWYVDGVEVHNAKTKPPEEQYNSTLRVVSVLTVLHQDWLNGKEYKCKVSNKALPAPIEKTISKAKGQPREPQVYTLPPSRDELTKNQVSLTCLVKGFYPSDIAVEWESNGQPENNYKTTPPVLDSDGSFFLYSKLTVDKSRWQQGNVFSCSVMHEALHNHYTQKSLSLSPGK", 4.6]
]}

Proceeding to the next binder to report its WT koff/mutant koff.
Quick check: WT koff/mutant koff of Fc mutant 15: R292P V305I P396L (other, UniProt P01857-1 104-330, looked up, domain: Fc) DKTHTCPPCPAPELLGGPSVFLFPPKPKDTLMISRTPEVTCVVVDVSHEDPEVKFNWYVDGVEVHNAKTKPPEEQYNSTYRVVSILTVLHQDWLNGKEYKCKVSNKALPAPIEKTISKAKGQPREPQVYTLPPSRDELTKNQVSLTCLVKGFYPSDIAVEWESNGQPENNYKTTPLVLDSDGSFFLYSKLTVDKSRWQQGNVFSCSVMHEALHNHYTQKSLSLSPGK ?
1.9
